# TARGET: SSTR4 (Human, UniProt P31391 1-388)
# Sequence (P31391 whole entry): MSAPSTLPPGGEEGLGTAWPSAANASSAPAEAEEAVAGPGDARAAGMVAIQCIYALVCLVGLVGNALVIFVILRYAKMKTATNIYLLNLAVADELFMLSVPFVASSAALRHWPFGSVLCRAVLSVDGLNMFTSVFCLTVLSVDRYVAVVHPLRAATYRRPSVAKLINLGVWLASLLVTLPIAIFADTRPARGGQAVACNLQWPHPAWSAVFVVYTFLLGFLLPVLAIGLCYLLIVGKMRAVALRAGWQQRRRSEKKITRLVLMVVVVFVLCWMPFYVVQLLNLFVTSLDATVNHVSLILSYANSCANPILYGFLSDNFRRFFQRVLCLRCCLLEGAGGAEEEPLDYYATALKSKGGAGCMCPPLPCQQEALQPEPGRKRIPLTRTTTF
# ASSAY_TEXT: cell-based or functional assay
Positions of bridges follow the written chain, without caps; N, C: chain ends. No end group written: not given here. diGlcNAc = diGlcNAc sugar chain
Hi there, I'd appreciate the recorded IC50 of agonist activity (cAMP) for every entry that follows.
Please reply with the bare figure in nM and do not write the unit itself.

Input line: Look up IC50 of agonist activity (cAMP) for this binder: C(diGlcNAc)ANSNPAMAPRERKAGCKNFFWKTFTSC (disulfide 17-28) [S1C(diGlcNAc)-SRIF28]
Output line: 0.05

Input line: # get_value(readout='IC50 of agonist activity (cAMP)', item= CCCANSNPAMAPRERKAGCKNFFWKTFTSC (Ser 1 replaced by three consecutive Cys each with an asialo sugar chain; disulfide Cys17-Cys28 (SRIF28 numbering)) [S1-3C(asialo)-SRIF28] )
Output line: 0.1

Input line: Form field: reported IC50 of agonist activity (cAMP) of CAGCKNFFWKTFTSC (disialo sugar chain on Cys added at the N-terminus of SRIF14; disulfide Cys17-Cys28 (SRIF28 numbering)) [C(disialo)-SRIF14]
Output line: 0.1

Input line: Record request: IC50 of agonist activity (cAMP) value, item CCCCCANSNPAMAPRERKAGCKNFFWKTFTSC (Ser 1 replaced by five consecutive Cys each with a disialo sugar chain; disulfide Cys17-Cys28 (SRIF28 numbering)) [S1-5C(disialo)-SRIF28]
Output line: 0.27

The origin of these recorded values is patent US20140315800A1.
